Test system: Mus musculus
experiment: In vivo lowering of blood glucose levels in diabetic obese ob/ob mice by measuring postprandial blood glucose level on day1 after 4 hours at 300 uM/kg oral dose
Format: functional

{"query.smiles": "CC(=O)N1C[C@@H](COc2ccc(Cl)cc2)O[C@@H]1c1ccc(Cl)c(Cl)c1", "Efficacy": "26%"}
{"query.smiles": "O=C1CC[C@]2(c3ccc(Oc4ccccc4)cc3)O[C@H](COc3ccc(Cl)cc3)CN12", "Efficacy": "-6%"}
{"query.smiles": "O=C1CCC[C@]2(c3ccccc3)O[C@H](COc3ccc(Cl)cc3)CN12", "Efficacy": "29%"}
{"query.smiles": "CS(=O)(=O)N1C[C@@H](COc2ccc(Cl)cc2)O[C@@H]1c1ccc(Cl)cc1", "Efficacy": "18%"}
{"query.smiles": "O=C1CC[C@]2(c3ccc(Cl)cc3)S[C@@H](COc3ccc(Cl)cc3)CN12", "Efficacy": "3%"}
{"query.smiles": "O=C1CC[C@]2(c3ccc(-c4ccccc4)cc3)O[C@H](COc3ccc(Cl)cc3)CN12", "Efficacy": "17%"}
{"query.smiles": "O=C1CC[C@]2(c3cccnc3)O[C@H](COc3ccc(Cl)cc3)CN12", "Efficacy": "20%"}
